system: egg of the two-spotted mite (Tetranychus urticae (Koch)); test: Mite Ovicide Test (egg); type: in vivo; design: key: A: Excellent Control; B: Partial Control; No Control; conditions: Table I; unhatched/hatched eggs four days after spraying; further: test concentration or dose not given here
measure: Miticidal, Egg (control rating)

What value of Miticidal, Egg (control rating) has been recorded for this entry: Cc1ccc(C)c(C2C(=O)C3CCCCC3C2=O)c1 (stereo not shown) [CH3 H CH3 (CH2)4]
A

Item: Cc1ccc(C2C(=O)CCC2=O)c(C)c1 [CH3 CH3 H H H]
A

Also Cc1ccc(C2C(=O)C3CCCCC3C2=O)c(C)c1 (stereo not shown) [CH3 CH3 H (CH2)4] , if possible.
A

What about Cc1ccccc1C1C(=O)CCC1=O [CH3 H H H H] ?
B

Repeat with O=C1C(c2ccc(Cl)cc2Cl)C(=O)C2CC=CCC12 (stereo not shown) [Cl Cl H (CH2 CHCHCH2)]
A

Read the next record carefully.
Which Miticidal, Egg (control rating) value belongs to Cc1ccc(C)c(C2C(=O)CC(C)C2=O)c1 (stereo not shown) [CH3 H CH3 CH3 H] ?
B
